Just for reference, ChEMBL document CHEMBL4622982 is where these values come from.

Measured Papp values are reported for all entries that follow.
# test.description: Effective permeability by PAMPA-BBB penetration assay
# Assay type: ADME
# condition.details: read-out: Peff

{"input.smiles": "NCCc1ccc(O)c(O)c1", "Papp [×10⁻⁶ cm/s]": 3.3}
{"input.smiles": "CC(=O)[C@H]1CC[C@H]2[C@@H]3CCC4=CC(=O)CC[C@]4(C)[C@H]3CC[C@]12C", "Papp [×10⁻⁶ cm/s]": 15.5}
{"input.smiles": "CN(C)CCCN1c2ccccc2Sc2ccc(Cl)cc21", "Papp [×10⁻⁶ cm/s]": 12.4}
{"input.smiles": "Clc1cccc(Cl)c1N=C1NCCN1", "Papp [×10⁻⁶ cm/s]": 8.8}
{"input.smiles": "C[C@]12CC[C@@H]3c4ccc(O)cc4CC[C@H]3[C@@H]1CC[C@@H]2O", "Papp [×10⁻⁶ cm/s]": 20.5}
{"input.smiles": "C[C@]12CCC(=O)C=C1CC[C@@H]1[C@@H]2C(=O)C[C@]2(C)C(=O)CC[C@@H]12", "Papp [×10⁻⁶ cm/s]": 6.05}
{"input.smiles": "Cc1ccc2cc(NC(=O)Cn3c(-c4nonc4N)nc4ccccc43)ccc2n1", "Papp [×10⁻⁶ cm/s]": 7.84}
{"input.smiles": "CN1C(C(=O)Nc2ccccn2)=C(O)c2ccccc2S1(=O)=O", "Papp [×10⁻⁶ cm/s]": 1.69}
